Target: MVITAIL (Human, UniProt Q9UM54-5 814-1253)
Sequence (Q9UM54 other isoform, or with tags, fused parts or gaps): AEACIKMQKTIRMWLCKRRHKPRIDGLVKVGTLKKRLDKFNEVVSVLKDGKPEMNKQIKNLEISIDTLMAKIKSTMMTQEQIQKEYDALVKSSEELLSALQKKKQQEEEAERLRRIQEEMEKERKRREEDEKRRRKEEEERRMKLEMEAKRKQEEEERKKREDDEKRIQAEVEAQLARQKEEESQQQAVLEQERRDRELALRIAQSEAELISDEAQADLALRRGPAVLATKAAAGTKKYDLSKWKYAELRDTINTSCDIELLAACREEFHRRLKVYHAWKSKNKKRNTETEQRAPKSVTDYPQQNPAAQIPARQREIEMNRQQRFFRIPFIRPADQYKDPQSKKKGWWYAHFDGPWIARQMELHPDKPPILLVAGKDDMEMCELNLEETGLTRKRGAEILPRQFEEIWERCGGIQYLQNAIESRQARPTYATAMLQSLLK
Test: fluorescence anisotropy; FAM-DNA 50 nM; assay buffer, salt, pH and temperature not given in the material (duplex annealing in water or 50 mM Tris-HCl pH 7.5, 150 mM NaCl, 3 mM MgCl2)
Settings: protein: recombinant; tags: His-tag (pET151), TEV-cleaved; label: 3' FAM on strand A; blunt
reported.endpoint: pKd
Field pKd (float): negative decimal logarithm of the concentration in molar.

pKd recorded for this binder, ds40 (dsDNA) DNA 1: TTAGTTGTTCGTAGTGCTCGTCTGGCTCTGGATTACCCGC DNA 2: GCGGGTAATCCAGAGCCAGACGAGCACTACGAACAACTAA , is 5.60
